B1: SPOPL (parent)
chain: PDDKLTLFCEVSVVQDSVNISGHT

- Variants of: B1
- measurementProtocol: protein stability index of a GFP-peptide fusion (GPS, HEK-293T) (PSI 1-6); higher = more stable;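 further: lentivirally expressed fusions sorted by FACS into six bins by GFP to DsRed ratio, PSI derived from sequencing read proportions per bin multiplied by bin number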
- details: c terminus: a fixed tail appended
reportedEndpoint: protein stability index
Answer field: number only, no words.

Query: Which measured protein stability index value corresponds to PDDKLTLFCDVSVVQDSVNISGHT [E10D] ?
Reply: 2.76

Query: Okay, and PDMKLTLFCEVSVVQDSVNISGHT [D3M] ?
Reply: 1.93

Query: Okay, and PEDKLTLFCEVSVVQDSVNISGHT [D2E] ?
Reply: 2.29

Query: Okay, and PDDKLTLFCEVSVVQDSTNISGHT [V18T] ?
Reply: 2.81

Query: Okay, and HDDKLTLFCEVSVVQDSVNISGHT [P1H] ?
Reply: 2.18

Query: Okay, and PDDKSTLFCEVSVVQDSVNISGHT [L5S] ?
Reply: 3.63

Query: Okay, and PDDKLTLFCEVSVVQWSVNISGHT [D16W] ?
Reply: 2.43

Query: Okay, and PDDKLDLFCEVSVVQDSVNISGHT [T6D] ?
Reply: 2.84

Query: Okay, and PDDKLTLFCEVSVVQDMVNISGHT [S17M] ?
Reply: 3.15

Query: Okay, and PDDKLTLNCEVSVVQDSVNISGHT [F8N] ?
Reply: 4.86

Query: Okay, and PDDTLTLFCEVSVVQDSVNISGHT [K4T] ?
Reply: 1.53

Origin of values: the supplement of paper PMC10567573
